assayedTarget: MAGI1_2, Q96QZ7
Sequence (Q96QZ7 456-580): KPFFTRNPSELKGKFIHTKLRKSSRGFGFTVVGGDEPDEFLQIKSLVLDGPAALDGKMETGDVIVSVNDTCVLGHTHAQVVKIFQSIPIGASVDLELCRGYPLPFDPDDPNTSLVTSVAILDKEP
assayName: holdup assay
Set-up: key: below the threshold = too weak to quantify, mostly under pKd 3.1 to 4
conditionsUsed: plain residues with an end cap or a label only (N-terminal biotin on a linker: ttds)
Quick reference for pKd among some binders
The answer should be a number; do not append a unit.

Solved entries:
In: For the binder shown here, DPRNTQTSQI [ABRAXAS2, Q15018] , give the reported pKd.
Out: 3.52

In: Proceed to SEKHFRETEV [HTLV1-TAX1, P03409]
Out: 4.45

In: Proceed to LCALPKVTTV [AGMAT, Q9BSE5]
Out: 4.1

Attention now turns to another entry.
In: For the binder shown here, RTRQRNETQV [HPV51-E6, P26554] , give the reported pKd.
Out: 5.93
